# SUBJECT OF TEST: insulin-regulated aminopeptidase (IRAP) (Homo sapiens, UniProt Q9UIQ6)
# Construct: containing the cDNA encoding the full length human RAP were utilised
# Sequence (Q9UIQ6 whole entry): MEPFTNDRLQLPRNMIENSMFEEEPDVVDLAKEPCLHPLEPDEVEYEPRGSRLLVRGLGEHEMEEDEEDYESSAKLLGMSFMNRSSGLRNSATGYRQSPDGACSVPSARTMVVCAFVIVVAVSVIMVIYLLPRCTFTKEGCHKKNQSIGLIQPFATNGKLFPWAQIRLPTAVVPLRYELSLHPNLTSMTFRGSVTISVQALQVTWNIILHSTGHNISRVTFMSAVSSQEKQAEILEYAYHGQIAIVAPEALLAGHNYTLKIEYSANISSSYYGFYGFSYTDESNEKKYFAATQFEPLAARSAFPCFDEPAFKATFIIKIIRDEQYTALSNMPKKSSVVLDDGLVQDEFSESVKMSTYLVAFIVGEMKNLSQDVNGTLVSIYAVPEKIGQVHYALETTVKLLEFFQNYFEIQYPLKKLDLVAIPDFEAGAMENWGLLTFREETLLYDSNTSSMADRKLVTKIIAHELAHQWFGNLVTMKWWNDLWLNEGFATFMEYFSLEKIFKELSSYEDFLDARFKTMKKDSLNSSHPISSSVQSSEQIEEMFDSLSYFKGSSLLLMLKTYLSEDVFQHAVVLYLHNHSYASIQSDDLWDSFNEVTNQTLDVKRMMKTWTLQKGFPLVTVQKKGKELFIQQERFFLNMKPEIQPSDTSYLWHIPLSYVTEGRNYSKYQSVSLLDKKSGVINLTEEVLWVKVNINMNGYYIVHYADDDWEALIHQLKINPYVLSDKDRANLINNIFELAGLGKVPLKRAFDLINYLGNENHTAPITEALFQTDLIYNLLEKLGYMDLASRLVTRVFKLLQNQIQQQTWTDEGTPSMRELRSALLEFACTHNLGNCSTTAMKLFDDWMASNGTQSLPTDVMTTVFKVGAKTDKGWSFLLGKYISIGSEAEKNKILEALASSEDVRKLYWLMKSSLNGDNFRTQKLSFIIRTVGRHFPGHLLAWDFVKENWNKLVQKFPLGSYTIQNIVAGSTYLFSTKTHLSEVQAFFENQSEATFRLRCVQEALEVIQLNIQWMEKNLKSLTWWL
# TEST DESCRIPTION: In vitro enzymatic assay for inhibitors of IRAP (hydrolysis of Leu-MCA, fluorescence)
# RUN CONDITIONS: recombinant full length human IRAP from transfected HEK293 cells; substrate Leu-MCA
pIC50: −log10 of the molar value.
METRIC NAME: pIC50

A selection of reference data follows.
- COMPOUND: "CCOC(=O)C1=C(N)Oc2cc(O)ccc2C1c1cccc(Cl)c1 (stereo not shown) [Compound 2]"
  SUBJECT OF TEST: "insulin-regulated aminopeptidase (IRAP) (Homo sapiens, UniProt Q9UIQ6)"
  MEASURED: 4.38
- COMPOUND: "COc1ccc(C2C(C#N)=C(N)Oc3cc(O)ccc32)cc1 (stereo not shown) [Compound 9]"
  SUBJECT OF TEST: "insulin-regulated aminopeptidase (IRAP) (Homo sapiens, UniProt Q9UIQ6)"
  MEASURED: 4.10

1. COc1ccc(C2C(C#N)=C(N)Oc3cc(O)ccc32)cc1OC (stereo not shown) [Compound 3]
2. CCOC(=O)C1=C(N)Oc2cc(O)ccc2C1c1cccnc1 (stereo not shown) [Compound 1]
QUERY: Higher pIC50 between 1 and 2 ? Field: selected label. Fill in the label of the entry you choose.
RESULT: 2
(2: 5.40, 1: 4.35)
